# Target Entity: T1, ScpA_(S512A), active site serine to alanine mutant of recombinant Streptococcal C5a peptidase ScpA, residues … (Streptococcus pyogenes, UniProt P15926 31-1032, S512A)
# T1 construct: mimics the form released from the cell surface by SpeB; catalytic residues D130, H193, S512; also called S512A active site mutant of ScpA; source: recombinant, from plasmid pGEX ScpA_((31-1032)) mutated with QuickChange II; purified
# T1 sequence: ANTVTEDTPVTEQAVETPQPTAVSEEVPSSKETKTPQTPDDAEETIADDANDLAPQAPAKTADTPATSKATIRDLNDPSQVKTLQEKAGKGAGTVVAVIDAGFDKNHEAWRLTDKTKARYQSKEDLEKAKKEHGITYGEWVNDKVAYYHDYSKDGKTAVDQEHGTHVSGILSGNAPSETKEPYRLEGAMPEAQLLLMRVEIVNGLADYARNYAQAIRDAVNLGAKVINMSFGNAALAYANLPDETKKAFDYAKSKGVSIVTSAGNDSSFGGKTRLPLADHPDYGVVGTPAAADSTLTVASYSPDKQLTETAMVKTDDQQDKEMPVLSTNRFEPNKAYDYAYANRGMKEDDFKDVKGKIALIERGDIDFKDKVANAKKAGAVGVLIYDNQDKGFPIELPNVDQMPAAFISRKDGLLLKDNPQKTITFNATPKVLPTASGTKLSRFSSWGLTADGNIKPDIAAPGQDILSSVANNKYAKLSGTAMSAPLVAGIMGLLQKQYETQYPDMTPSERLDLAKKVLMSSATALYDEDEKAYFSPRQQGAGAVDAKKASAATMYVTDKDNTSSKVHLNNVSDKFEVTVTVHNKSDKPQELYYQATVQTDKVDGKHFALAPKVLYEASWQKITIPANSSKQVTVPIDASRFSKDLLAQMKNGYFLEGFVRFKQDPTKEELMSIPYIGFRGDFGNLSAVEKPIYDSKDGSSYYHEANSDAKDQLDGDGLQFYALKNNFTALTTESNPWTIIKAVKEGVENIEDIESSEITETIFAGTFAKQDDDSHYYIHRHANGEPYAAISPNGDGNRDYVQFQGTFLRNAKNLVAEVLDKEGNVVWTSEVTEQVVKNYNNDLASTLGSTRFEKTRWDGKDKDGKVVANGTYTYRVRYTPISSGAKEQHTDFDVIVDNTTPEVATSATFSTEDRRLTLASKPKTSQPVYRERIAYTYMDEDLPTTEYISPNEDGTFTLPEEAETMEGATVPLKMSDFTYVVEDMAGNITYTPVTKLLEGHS
# Protocol Notes: SPR; His-tagged rhC5a immobilised on NTA sensor chip, ScpA_(S512A) flowed over; 25 °C; Hepes buffer with 950 mM NaCl; 1:1 Langmuir model
# Test Parameters: both partners purified
pKd: −log10 of the molar value.
Experimental Endpoint: pKd

# Binder, Observed
rows = [
    ("recombinant human C5a, N-ter hexa-histidine tagged (rhC5a) (natural protein, UniProt P01031 678-751, looked up, β-mercaptoethanol added to C27 in the refolding process, numbers count on: the mature C5a (1-74); His-tagged form immobilised on the NTA chip in SPR; also called full length rhC5a; not shown: His6, N-terminal, kept) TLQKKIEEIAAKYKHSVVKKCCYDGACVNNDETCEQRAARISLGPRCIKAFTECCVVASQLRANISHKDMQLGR", 6.33),
]
